target: KIF18a-Microtubule Complex (Homo sapiens (Human), UniProt Q8NI77); assay: Binding kinetics to KIF18a-microtubule complex (global progress curve analysis); conditions: ln(2)/koff
Sequence (Q8NI77 whole entry, looked up): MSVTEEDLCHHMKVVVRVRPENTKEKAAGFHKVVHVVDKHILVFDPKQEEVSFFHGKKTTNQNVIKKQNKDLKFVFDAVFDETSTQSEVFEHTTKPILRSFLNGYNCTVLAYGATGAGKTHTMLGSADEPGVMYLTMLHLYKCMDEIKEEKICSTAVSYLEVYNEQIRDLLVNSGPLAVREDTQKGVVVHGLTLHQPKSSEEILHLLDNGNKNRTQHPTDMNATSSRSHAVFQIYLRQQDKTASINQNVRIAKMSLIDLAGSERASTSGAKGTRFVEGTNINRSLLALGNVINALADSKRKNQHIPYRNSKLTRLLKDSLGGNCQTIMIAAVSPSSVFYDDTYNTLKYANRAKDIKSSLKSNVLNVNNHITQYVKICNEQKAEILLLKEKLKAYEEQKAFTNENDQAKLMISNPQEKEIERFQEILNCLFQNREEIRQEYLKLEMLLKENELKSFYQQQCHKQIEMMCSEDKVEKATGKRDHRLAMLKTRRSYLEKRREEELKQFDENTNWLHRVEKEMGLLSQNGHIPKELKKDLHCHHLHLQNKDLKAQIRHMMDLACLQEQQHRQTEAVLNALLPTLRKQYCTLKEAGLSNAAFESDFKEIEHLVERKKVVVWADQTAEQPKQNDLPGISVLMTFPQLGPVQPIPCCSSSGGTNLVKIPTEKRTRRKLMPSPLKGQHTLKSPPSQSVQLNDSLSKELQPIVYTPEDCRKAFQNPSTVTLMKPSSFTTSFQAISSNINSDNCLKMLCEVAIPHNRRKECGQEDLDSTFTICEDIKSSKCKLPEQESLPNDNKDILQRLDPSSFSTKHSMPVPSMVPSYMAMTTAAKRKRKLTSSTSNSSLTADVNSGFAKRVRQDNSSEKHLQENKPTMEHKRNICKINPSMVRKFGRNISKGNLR
Sequence (Q2XVP4 whole entry partner, looked up): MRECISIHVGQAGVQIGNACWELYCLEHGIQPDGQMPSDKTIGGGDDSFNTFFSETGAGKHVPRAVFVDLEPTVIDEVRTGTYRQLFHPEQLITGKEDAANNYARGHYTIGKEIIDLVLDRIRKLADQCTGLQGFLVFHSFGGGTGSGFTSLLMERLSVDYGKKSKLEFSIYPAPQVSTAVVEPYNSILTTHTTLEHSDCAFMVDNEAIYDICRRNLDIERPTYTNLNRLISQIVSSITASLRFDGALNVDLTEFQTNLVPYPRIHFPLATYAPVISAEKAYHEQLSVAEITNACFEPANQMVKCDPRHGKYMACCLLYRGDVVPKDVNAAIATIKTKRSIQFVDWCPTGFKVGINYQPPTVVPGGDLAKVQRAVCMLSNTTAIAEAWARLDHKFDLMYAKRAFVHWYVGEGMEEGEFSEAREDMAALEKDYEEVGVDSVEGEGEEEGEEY
Sequence (P02554 whole entry partner, looked up): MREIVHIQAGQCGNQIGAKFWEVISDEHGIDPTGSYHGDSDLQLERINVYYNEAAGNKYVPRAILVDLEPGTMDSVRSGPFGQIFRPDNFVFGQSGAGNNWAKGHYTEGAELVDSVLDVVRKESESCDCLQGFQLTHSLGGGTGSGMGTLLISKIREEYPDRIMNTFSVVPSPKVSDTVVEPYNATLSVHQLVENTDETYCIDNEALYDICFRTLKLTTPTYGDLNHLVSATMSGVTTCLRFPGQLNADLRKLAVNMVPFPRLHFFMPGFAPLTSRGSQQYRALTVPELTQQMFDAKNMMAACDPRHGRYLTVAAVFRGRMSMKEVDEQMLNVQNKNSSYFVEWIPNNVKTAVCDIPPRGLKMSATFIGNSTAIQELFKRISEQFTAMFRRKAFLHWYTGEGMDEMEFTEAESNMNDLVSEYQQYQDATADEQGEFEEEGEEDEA
The label depends only on disc. t1/2 (dissociation half-life ln(2)/koff): rule met if it is at least 9 h, rule not met if it is smaller.

Molecule | Assigned Label
CC(C)(C)NS(=O)(=O)c1cccc(C(=O)N2CC3(CCC4(CC4)CC3)c3cc(NS(=O)(=O)C4CC4)ccc32)c1 [Compound 160] | rule met
CCS(=O)(=O)Nc1ccc2c(c1)C1(CCC3(CC3)CC1)CN2C(=O)c1cc(S(=O)(=O)NC(C)(C)C)cs1 [Compound 269] | rule not met
CS(=O)(=O)Nc1ccc2c(c1)C1(CCC3(CC3)CC1)CN2C(=O)c1cccc(S(=O)(=O)N2CC(F)(F)C2)c1 [Compound 257] | rule met
CS(=O)(=O)Nc1ccc2c(c1)C1(CCC3(CC3)CC1)CN2C(=O)c1cccc(S(=O)(=O)N2CC[C@@H](F)C2)c1 [(R)-Compound 239] | rule not met
CC(C)(C)NS(=O)(=O)c1cccc(C(=O)N2CC3(CCC4(CC4)CC3)c3cc(NS(=O)(=O)CCO)ccc32)c1 [Compound 148] | rule met
CS(=O)(=O)Nc1ccc2c(c1)C1(CCC3(CC3)CC1)CN2C(=O)c1cccc([C@H](O)CC2CCC2)c1 (single isomer, unassigned) [Compound 305b] | rule not met
CC(C)(C)NS(=O)(=O)c1cccc(C(=O)N2CC3(CCC(F)(F)CC3)c3cc(NS(C)(=O)=O)ccc32)c1 [Compound 144] | rule not met
CC(C)(C)NS(=O)(=O)c1cccc(C(=O)N2C[C@]3(CC[C@@H](C)CC3)c3cc(NS(C)(=O)=O)ccc32)c1 [Compound 140b] | rule not met
CS(=O)(=O)Nc1ccc2c(c1)C1(CCC3(CC3)CC1)CN2C(=O)c1cccc(S(=O)(=O)C2CCCC2)c1 [Compound 155] | rule not met
CS(=O)(=O)Nc1ccc2c(c1)C1(CCC3(CC3)CC1)CN2C(=O)c1cccc(C(O)C2CCCC2)c1 (single isomer, unassigned) [Compound 165a] | rule not met
CS(=O)(=O)Nc1ccc2c(c1)C1(CCC3(CC3)CC1)CN2C(=O)c1cccc([C@@H](O)C2CCCC2)n1 (single isomer, unassigned) [Compound 317a] | rule not met
CCS(=O)(=O)Nc1ccc2c(c1)C1(CCC3(CC3)CC1)CN2C(=O)c1cccc(S(=O)(=O)NC(C)(C)C)c1 [Compound 134] | rule met
CS(=O)(=O)Nc1ccc2c(c1)C1(CCCCC1)CN2C(=O)c1cccc(S(=O)(=O)C2CCCCC2)c1 [Compound 70] | rule not met
CS(=O)(=O)Nc1ccc2c(c1)C1(CCC3(CC3)CC1)CN2C(=O)c1cccc(S(=O)(=O)C2CC(F)(F)C2)c1 [Compound 322] | rule not met
CC(C)(C)NS(=O)(=O)c1cc(C(=O)N2CC3(CCC4(CC4)CC3)c3cc(NS(C)(=O)=O)ccc32)ccc1F [Compound 159] | rule met
CS(=O)(=O)Nc1ccc2c(c1)C1(CCC3(CC3)CC1)CN2C(=O)c1cccc(S(=O)(=O)N2CC3C(C2)C3(F)F)c1 (centres unmarked) [Compound 237] | rule met
CS(=O)(=O)Nc1ccc2c(c1)C1(CCC3(CC3)CC1)CN2C(=O)c1cccc(S(=O)(=O)N2CC3(CCC3)C2)c1 [Compound 151] | rule met
CC(C)(C)NS(=O)(=O)c1cc(C(=O)N2CC3(CCC4(CC4)CC3)c3cc(NS(C)(=O)=O)ccc32)ccc1O [Compound 298] | rule met
CS(=O)(=O)Nc1ccc2c(c1)C1(CCC3(CC3)CC1)CN2C(=O)c1cccc(S(=O)(=O)NC2CC(F)(F)C2)c1 [Compound 192] | rule met
CS(=O)(=O)Nc1ccc2c(c1)C1(CCCCC1)CN2C(=O)c1cccc(S(=O)(=O)N2CC3(CCC3)C2)c1 [Compound 129] | rule not met
CC(C)(C)NS(=O)(=O)c1cc(C(=O)N2CC3(CCC4(CC4)CC3)c3cc(NS(C)(=O)=O)ccc32)cs1 [Compound 262] | rule not met
CCS(=O)(=O)Nc1ccc2c(c1)[C@]1(CC[C@@H](C(F)F)CC1)CN2C(=O)c1cccc(S(=O)(=O)NC(C)(C)C)c1 [Compound 333a] | rule met
CC(C)(C)NS(=O)(=O)c1cccc(C(=O)N2CC3(CCC4(CC4)CC3)c3cc(NS(C)(=O)=O)ccc32)c1 [Compound 22] | rule met
CC(C)(C)NS(=O)(=O)c1cccc(C(=O)N2C[C@]3(CC[C@H](C)CC3)c3cc(NS(C)(=O)=O)ccc32)c1 [Compound 140a] | rule met
O=C(c1cccc(S(=O)(=O)C2CCCC2)c1)N1CC2(CCC3(CC3)CC2)c2cc(NS(=O)(=O)CCO)ccc21 [Compound 229] | rule met
CS(=O)(=O)Nc1ccc2c(c1)C1(CCC3(CC3)CC1)CN2C(=O)c1cccc(S(=O)(=O)NC23CC(C2)C3)c1 [Compound 223] | rule not met

###

target: hKIF18A (1-374) (Homo sapiens (Human), UniProt Q8NI77); assay: Inhibition of KIF18A microtubule-dependent ATPase activity (ADP-Glo)
Metric: IC50 (nM)

Compound | Value
C[C@H]1CCN(S(=O)(=O)c2cccc(C(=O)N3CC4(CCC5(CC5)CC4)c4cc(NS(C)(=O)=O)ccc43)c2)C1 [(S)-Compound 249] | 16
C[C@@H]1CCN(S(=O)(=O)c2cccc(C(=O)N3CC4(CCC5(CC5)CC4)c4cc(NS(C)(=O)=O)ccc43)c2)C1 [(R)-Compound 249] | 11
CC(C)(C)NS(=O)(=O)c1cccc(C(=O)N2CC3(CCC4(CC4)CC3)c3cc(NS(C)(=O)=O)ccc32)c1 | 9.4
CC1CCC2(CC1)CN(C(=O)c1cccc(S(=O)(=O)N3CCC(F)(F)CC3)c1)c1ccc(NS(C)(=O)=O)cc12 (stereo not shown) | 10
CC1CCC2(CC1)CN(C(=O)c1cccc(S(=O)(=O)N3CCC(F)(F)CC3)c1)c1ccc(Br)cc12 (stereo not shown) | 740
COC1CC(NS(=O)(=O)c2cccc(C(=O)N3CC4(CCC5(CC5)CC4)c4cc(NS(C)(=O)=O)ccc43)c2)C1 (stereo not shown) | 100
CS(=O)(=O)Nc1ccc2c(c1)C1(CCC3(CC3)CC1)CN2C(=O)c1cccc(S(=O)(=O)NC2CC(F)C2)c1 (stereo not shown) | 13

###

biological target: KIF18a-Microtubule Complex (Homo sapiens (Human)); test: Binding kinetics to KIF18a-microtubule complex (global progress curve analysis); conditions: read-out: KI (determined from binding kinetic assay koff/kon); koff/kon
Reported log10(Ki) values for a set of molecules
Metric: log10(Ki) (log10 of the value in nM)

Molecule | log10(Ki)
CC(C)(C)NS(=O)(=O)c1cccc(C(=O)N2CC3(CCC(F)(F)CC3)c3cc(NS(C)(=O)=O)ccc32)c1 | 0.97
CCS(=O)(=O)Nc1ccc2c(c1)C1(CCC3(CC3)CC1)CN2C(=O)c1cccc(S(=O)(=O)NC(C)(C)C)c1 | -0.47
CS(=O)(=O)Nc1ccc2c(c1)C1(CCC3(CC3)CC1)CN2C(=O)c1cccc(S(=O)(=O)N2CC[C@@H](F)C2)c1 [(R)-Compound 239] | 0.15
CS(=O)(=O)Nc1ccc2c(c1)C1(CCC3(CC3)CC1)CN2C(=O)c1cccc(C(O)C2CCCC2)c1 (single isomer, unassigned) [Compound 165b] | 0.59
CS(=O)(=O)Nc1ccc2c(c1)C1(CCC3(CC3)CC1)CN2C(=O)c1cccc([C@H](O)C2CC(F)(F)C2)c1 (single isomer, unassigned) [Compound 351a] | 0.76
CS(=O)(=O)Nc1ccc2c(c1)C1(CCC3(CC3)CC1)CN2C(=O)c1cccc(C(O)C2CCCC2)c1 (single isomer, unassigned) [Compound 165a] | 0.62
CC(C)(C)NS(=O)(=O)c1cccc(C(=O)N2C[C@]3(CC[C@H](C)CC3)c3cc(NS(C)(=O)=O)ccc32)c1 [Compound 140a] | -0.30
CS(=O)(=O)Nc1ccc2c(c1)C1(CCC3(CC3)CC1)CN2C(=O)c1cccc([C@@H](O)CC2CCC2)c1 (single isomer, unassigned) [Compound 305a] | 0.54
CS(=O)(=O)Nc1ccc2c(c1)C1(CCC3(CC3)CC1)CN2C(=O)c1cccc(S(=O)(=O)N2CC(F)(F)C2)c1 | -0.02
O=C(c1cccc(S(=O)(=O)C2CCCC2)c1)N1CC2(CCC3(CC3)CC2)c2cc(NS(=O)(=O)CCO)ccc21 | -0.54
CC(C)(C)NS(=O)(=O)c1cccc(C(=O)N2C[C@]3(CC[C@@H](C)CC3)c3cc(NS(C)(=O)=O)ccc32)c1 [Compound 140b] | 0.15
CCS(=O)(=O)Nc1ccc2c(c1)[C@]1(CC[C@@H](C(F)F)CC1)CN2C(=O)c1cccc(S(=O)(=O)NC(C)(C)C)c1 [Compound 333a] | -0.33
